tested on: B16; test: The cytotoxic activity was measured against B16 melanoma cells, activity expressed as ED50 of compound/ ED50 of paclitaxel; type: functional, Mus musculus
observed.property: Cytotoxicity
Lab note: jot the number down without any unit.

[in] Name the reported Cytotoxicity value associated with the compound `CC(=O)O[C@H]1C(=O)[C@@]2(C)[C@H]([C@H](OC(=O)c3ccccc3)[C@]3(O)C[C@H](OC(=O)[C@H](O)[C@@H](NC(=O)c4ccccc4)c4ccccc4)C(C)=C1C3(C)C)[C@]1(OC(C)=O)CO[C@@H]1C[C@@H]2O`
[out] 1

[in] Name the reported Cytotoxicity value associated with the compound `CC(=O)O[C@H]1C(=O)[C@]2(C)[C@@H](OC(=O)c3cccc(N)c3)C[C@H]3OC[C@@]3(OC(C)=O)[C@H]2[C@H](OC(=O)c2ccccc2)[C@]2(O)C[C@H](OC(=O)[C@H](O)[C@@H](NC(=O)c3ccccc3)c3ccccc3)C(C)=C1C2(C)C`
[out] 7.1

[in] Name the reported Cytotoxicity value associated with the compound `CC(=O)O[C@H]1C(=O)[C@]2(C)[C@@H](OC(=O)c3cc(N)cc([N+](=O)[O-])c3)C[C@H]3OC[C@@]3(OC(C)=O)[C@H]2[C@H](OC(=O)c2ccccc2)[C@]2(O)C[C@H](OC(=O)[C@H](O)[C@@H](NC(=O)c3ccccc3)c3ccccc3)C(C)=C1C2(C)C`
[out] 16

[in] Name the reported Cytotoxicity value associated with the compound `CC(=O)O[C@H]1C(=O)[C@]2(C)[C@@H](OC(=O)c3ccccc3)C[C@H]3OC[C@@]3(OC(C)=O)[C@H]2[C@H](OC(=O)c2ccccc2)[C@]2(O)C[C@H](OC(=O)[C@H](O)[C@@H](NC(=O)c3ccccc3)c3ccccc3)C(C)=C1C2(C)C`
[out] 9.7
